Source: the supplement of paper PMC6555819

# Tested on: FXR:RXRa (NR concentration 270 nM, RXRa partner concentration 90 nM)
# PROCEDURE_SUMMARY: PBM binding z-score (relative to random genomic background probes); higher = stronger binding; sequences stand for … in GC…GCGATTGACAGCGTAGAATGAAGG
PBM binding z-score vs 0.4: at or above is t, below is f.

[ask] Is it the case that ACAGACAGGTGATGAGGGTAACTCAGGCTATCAT has PBM binding z-score reaching or exceeding 0.4?
[reply] f

[ask] hey, is PBM binding z-score for this one >= 0.4? TCTATTAGGTGATTAGGGCAACCGAAACAGCGGA
[reply] t

[ask] # check: PBM binding z-score of CCGAGTAGGTGATGGGGCATTCAGGCAACGGTGA is greater than or equal to 0.4
[reply] f

[ask] Determine whether measured PBM binding z-score meets or exceeds 0.4 for CCGACTAGGGCAAAGGTTACCATACTCAGTACGA
[reply] t

[ask] Could you tell me if the measured PBM binding z-score of GCAGCTAGGTCAGGTTGGTCAGCTAACGGGTACG reaches 0.4 or more?
[reply] t

[ask] Does PBM binding z-score meet or surpass 0.4 for TCATATAGGTAAATGCTAGCTGAAAGTCCGATCT ?
[reply] t

[ask] I'd appreciate it if you could say whether ACTATTAGTTTACTTAGGGCAACCGATACGACGC has PBM binding z-score at least equal to 0.4.
[reply] f

[ask] # check: PBM binding z-score of GGAACGAGGGCATTCGAGTTGATACCATGGCGAT is greater than or equal to 0.4
[reply] t

[ask] # bool: PBM binding z-score of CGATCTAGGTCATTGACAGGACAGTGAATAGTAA >= 0.4
[reply] t

[ask] Quick check: does GATACAGGGTCAGCGAGAGGCCAGAGTATGGAAA have PBM binding z-score greater than or equal to 0.4?
[reply] t

[ask] Is PBM binding z-score for TCGAGTAGGTTAGGCGGGGCATTCAGCCAACATA at or above 0.4?
[reply] f

[ask] Is reported PBM binding z-score greater than or equal to 0.4 here: ATAATGAGGTTACCAAAGATCAGGGAAACGCTTG
[reply] t

----------
# System: LXRa homodimer (NR concentration 270 nM)
# PROCEDURE_SUMMARY: PBM binding z-score (relative to random genomic background probes); higher = stronger binding; sequences stand for … in GC…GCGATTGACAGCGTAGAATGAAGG
ENDPOINT_NAME: PBM binding z-score
Please reply with the value in numeric form only.

[ask] Provide one value: measured PBM binding z-score of AGCTCTAGGTAACCAAGTTCAGTGAATGCCGAAC
[reply] 0.46

[ask] Assign PBM binding z-score to the following record: CGTACTGGGCCACGAAAGGTCATTGATTCAGTGA
[reply] 5.16

[ask] Write down PBM binding z-score measured for item CCGAGTAGGTTATGGGGCAATCAGGCAACGGTGA
[reply] 0.13

[ask] Query PBM binding z-score for TCTAGGTGGTCAAAGGTCACACACTCGAAATGCG
[reply] 3.73

[ask] In one line, give reported PBM binding z-score of the entry CGTCCAAGGTCATAGGAGATCAGTGAAGACAGAT .
[reply] 1.32

[ask] Supply recorded PBM binding z-score for GCATATAGGTAATACAAGGTGTAAGTCCGATTGT here.
[reply] -0.0292

[ask] Give the value of PBM binding z-score reported for the following: TCTTGTAGTTCAATAGAGGTTAAGAAAGTGCGCT
[reply] 2.45

[ask] Please give measured PBM binding z-score of the following entry: CAACCTAGGTCAAGGTCAAAGTCGGTTTGTGCCA
[reply] 3.63

[ask] Please look at this sequence and report its PBM binding z-score: CGAACTAGGCCAAGGACAGTGAATCTCCGCACGC
[reply] -0.191

[ask] Note PBM binding z-score for the sequence shown: AGAACTAGGGCACGCTGAGTTGATAGCAGAGTAG
[reply] -0.762

[ask] Query PBM binding z-score for TCTGGTAGGTCAACGATGGTCAGCTAATCTGCTA
[reply] 0.986

[ask] Kindly indicate its recorded PBM binding z-score. Item: CTTATTAGTTGACCATAAGGGCAACCGAAGCTCG
[reply] 0.185

[ask] Please give the documented PBM binding z-score of AGAATGAGGTTATACGTAGATCATGGAAGAAAGT
[reply] 0.00529

[ask] Note PBM binding z-score for the sequence shown: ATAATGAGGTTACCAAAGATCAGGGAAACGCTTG
[reply] 0.166

[ask] Read the entry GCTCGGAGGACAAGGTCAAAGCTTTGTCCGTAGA and write its reported PBM binding z-score.
[reply] 0.466

[ask] Please report the measured PBM binding z-score for CCTCGGAGGACAACAGGAGGTCAGAGGTGCCAGA
[reply] 2.19

[ask] Answer with the recorded PBM binding z-score of CCTAGTTGGTCAAGGTCACACACGCTATAGGTAC only.
[reply] 2.66

[ask] Specify reported PBM binding z-score for the sequence shown: AGAACGAGGGCACGCCGAGTTGATAGCAGAGTAG
[reply] -0.503

[ask] Look up and report measured PBM binding z-score for this entry: GCAGACAGGTGAAACGCAGATAACTCAGGGTGGC
[reply] -0.429

[ask] Respond only with PBM binding z-score recorded for CCGACTGGGGCAAACGTTACCATACTCAGTACGA
[reply] -0.00869

[ask] State its PBM binding z-score: GTACCAAGGTGAATAAGTCGTTGATGAGTAGGCG
[reply] -0.143

[ask] Look up PBM binding z-score of CAAACTAGGTCACCGGACGGTCAAAGTCCGCATG and report it.
[reply] 1.97

[ask] Please indicate PBM binding z-score recorded for AATACAGGTTCATCGTAGGCCAGAGTACGCACAG
[reply] 1.85

[ask] Give reported PBM binding z-score value for AGTAAAAGTTCATCTAGGTAACGTAAGATATGCT
[reply] 5.21

[ask] Could you please provide reported PBM binding z-score for ACAGACAGGTGAGTGAAGGTAAGTCAGCTGGACG ? Thanks!
[reply] -0.483

[ask] Give reported PBM binding z-score value for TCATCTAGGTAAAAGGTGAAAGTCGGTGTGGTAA
[reply] 0.186

----------
# Tested on: RARa:RXR (NR concentration 270 nM, RXRa partner concentration 90 nM)
# PROCEDURE_SUMMARY: PBM binding z-score (relative to random genomic background probes); higher = stronger binding; sequences stand for … in GC…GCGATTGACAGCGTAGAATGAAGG
Recorded PBM binding z-score determines the group label, using lowest: < 0.5; middle: ≥ 0.5 and < 2; highest: ≥ 2

[ask] Assign a category based on measured PBM binding z-score for CTTCCAAGGTCAGCAGGTCAGTGAAAGCGACGTG and give only the class name.
[reply] highest

[ask] Kindly identify the class of GCCGCTAGGTCAACTGATGGTCAGCTAAAGCTCG .
[reply] highest

[ask] Band assignment needed for AGAATGAGGTTACCGAAGATCAGGGAAACGCTTG please.
[reply] highest

[ask] Record TCGAGTAGGTTAGTCGGGGCATCCAGCCAACATA — which class?
[reply] lowest

[ask] Form field 'band' for ACTCTTAGTTGACTTAGGGCAACCGATACGACGC
[reply] middle

[ask] Which category fits this record: GCTAGTAGATCAAGGTTAAGAAAGACTAAGCTAA
[reply] middle

[ask] Category of ATCTCTAGGTAAAAGTGCAGTGAATCCCGAGGAT :
[reply] lowest

[ask] Hi there! Could you help me figure out the category for GCTAGTTGGTCAGTAAAAGGCCACACACCGGTCG please?
[reply] lowest

[ask] Lab note: which band did CGAACTAGGTCATTGACAGGGCAGTGAATAGTAA land in?
[reply] highest

[ask] The entry to classify is CCGACTGGGGCAAGGTTACAATAACGCACAGCCA ; which class holds it?
[reply] middle

----------
# Tested on: RARb homodimer (NR concentration 270 nM)
# PROCEDURE_SUMMARY: PBM binding z-score (relative to random genomic background probes); higher = stronger binding; sequences stand for … in GC…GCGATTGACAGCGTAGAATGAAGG
ENDPOINT_NAME: PBM binding z-score

[ask] Fill: PBM binding z-score (RARb homodimer (NR concentration 270 nM)) for this sequence CCTATTAGTTGACCTTAAGGGCAACCGAAGCTCG
[reply] 4.16

[ask] State measured PBM binding z-score of the sequence AGGACGAGGGCAATGAGTTGATAGCACGGGTGGC with RARb homodimer (NR concentration 270 nM).
[reply] 1.44

[ask] State recorded PBM binding z-score with RARb homodimer (NR concentration 270 nM), entry ACTAGTTGGTCAGCTGAGGCCACACACAATTCGG , no comment.
[reply] 1.35

[ask] State PBM binding z-score (RARb homodimer (NR concentration 270 nM)) of AGTCAAAGTTCACTGGGTAACGTAAGATTCAGCT .
[reply] 3.82

[ask] Report PBM binding z-score under test system RARb homodimer (NR concentration 270 nM) for CTTACTGGGCCAAGGTCATTGATCAGTCAAAGCA .
[reply] 3.49

[ask] Answer briefly: PBM binding z-score recorded on RARb homodimer (NR concentration 270 nM) for CATCAAAGTTCAAGGTAACGTAACAGAAAGCAGC
[reply] 3.8

[ask] Consider the sequence ATATTTAGGTTAAGGGTCATTCAGGTTGGTTCGC tested on RARb homodimer (NR concentration 270 nM); state its PBM binding z-score.
[reply] 4.22

[ask] Please look at GCTCGTAGATCAAGGTTAAGAAAGACTAAGCTAA and tell me its recorded PBM binding z-score on RARb homodimer (NR concentration 270 nM).
[reply] -0.0448

[ask] Report value only: PBM binding z-score, RARb homodimer (NR concentration 270 nM), GGAACGAGGGCATTCGAGTTGATAGCCTGGCGAT
[reply] 0.74

[ask] Find PBM binding z-score for GCTAGCAGGCCATTTGGGTCACTTAATGACGGGC on RARb homodimer (NR concentration 270 nM) and write it down.
[reply] 1.82

[ask] Write down measured PBM binding z-score (RARb homodimer (NR concentration 270 nM)) for this sequence. TCTTGTAGATCAAGAGGAGGTTAAGAAAGATCGA
[reply] 0.486

[ask] Answer with PBM binding z-score of ACTTGCGGGTCAACGAGGTTATAGCACGCGTATA measured for RARb homodimer (NR concentration 270 nM).
[reply] 3.37

[ask] Identify measured PBM binding z-score obtained with RARb homodimer (NR concentration 270 nM) for GCAGACGGGTGAAACGCAGGTAACTCAGGGTGGC .
[reply] -0.28

[ask] Report PBM binding z-score under test system RARb homodimer (NR concentration 270 nM) for TCTAGTTGGTCAAAGGTCACAAACTCGAAATGCG .
[reply] 4.92

[ask] Report PBM binding z-score under test system RARb homodimer (NR concentration 270 nM) for GATACAGGGTCAGCTAGAGGCCAGACTATGGAAA .
[reply] 3.59

[ask] Give PBM binding z-score for this entry on RARb homodimer (NR concentration 270 nM): CGTCGAAGGTCAAGGTCAGTGAAAGAGACTCGAA
[reply] 5.05

[ask] State PBM binding z-score on RARb homodimer (NR concentration 270 nM). Entry: ATCTCTAGGTAACAAGTTCGGTGAAAGAGAGGAC
[reply] 1.21

[ask] Look up and report PBM binding z-score, with RARb homodimer (NR concentration 270 nM) as system, for CCTTACGAGTCACTCCAGGTTATAGCATCGGAGT
[reply] 0.938

[ask] For RARb homodimer (NR concentration 270 nM), give the measured PBM binding z-score of the entry ATCTCTGGGTAACAAGTTCAGTGAAAGAGAGGAC
[reply] 1.8

[ask] Answer with PBM binding z-score of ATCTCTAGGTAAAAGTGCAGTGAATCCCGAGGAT measured for RARb homodimer (NR concentration 270 nM).
[reply] 0.183

[ask] Report value only: PBM binding z-score, RARb homodimer (NR concentration 270 nM), CCAGAGAGGTGAAAGGTAACTCAGTCTGGTACGC
[reply] 1.42

[ask] Quote RARb homodimer (NR concentration 270 nM) PBM binding z-score for entry ATATGTAGGTTAGCTGCGGTCATTCAGACTAGGC .
[reply] 2.02

[ask] Lab note: record PBM binding z-score of CAAACTAGGTCACAGGTCAAAGTCGAGCCAACCA tested on RARb homodimer (NR concentration 270 nM).
[reply] 4.27

[ask] Give PBM binding z-score for this entry on RARb homodimer (NR concentration 270 nM): CGTCCAAGGTCAAAGGTCAGTGCAGAGATGACGG
[reply] 5.5

[ask] Write down measured PBM binding z-score (RARb homodimer (NR concentration 270 nM)) for this sequence. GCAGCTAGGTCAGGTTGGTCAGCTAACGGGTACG
[reply] 2.83

[ask] Lab note: RARb homodimer (NR concentration 270 nM) assay, enter PBM binding z-score for ACTAGCAGGCCAAGTTTGGGACACTCAAACAAAG here
[reply] 0.289
